System: HEK-293T
Assay: Multiplex assay against HEK293T
Assay type: toxicity, cell-based
Conditions: human, 24 h, 10 µM, compound concentration 10 uM, replicate 1
METRIC: Population Membrane Permeable-Phenotype (%)

>>> observed_value("CNC(=O)c1cc(Oc2ccc(NC(=O)Nc3cc(C(C)(C)C)nn3-c3ccc4ncccc4c3)c(F)c2)ccn1")
"8%"
>>> observed_value("CCn1c(-c2nonc2N)nc2cnc(Oc3cccc(NC(=O)c4ccc(OCCN5CCOCC5)cc4)c3)cc21 [GSK-269962A]")
"4%"

Req: Fill in: Population Membrane Permeable-Phenotype (%) of Cl.Cl.NC1(c2ccc(-c3nc4ccn5c(=O)[nH]nc5c4cc3-c3ccccc3)cc2)CCC1 is ___
Resp: 23%

----------
Overview of recorded Growth Rate for various compounds
Test system: HEK-293T
Experiment: Incucyte cell viability with HEK293T; also: filed as whole numbers so only -1 and 0 and 1 occur
Assay type: toxicity, cell-based
Details: human, 18 h, 10 µM, compound concentration 10 uM, replicate number 1, timepoint 18 hours
Respond numerically, and do not add a unit to the figure.

>>> observed_value("CN(C)CCCn1cc(C2=C(c3c[nH]c4ccccc34)C(=O)NC2=O)c2ccccc21")
0
>>> observed_value("CCN(CC)CCCCC1CCN(CC(=O)N2c3ccccc3C(=O)Nc3cccnc32)CC1")
1

Could you now consider this next compound?
Req: Can you share its Growth Rate? I mean this compound: CO[C@H]1/C=C/O[C@@]2(C)Oc3c(C)c(O)c4c(O)c(c(/C=N/N5CCN(C)CC5)c(O)c4c3C2=O)NC(=O)/C(C)=C\C=C\[C@H](C)[C@H](O)[C@@H](C)[C@@H](O)[C@@H](C)[C@H](OC(C)=O)[C@@H]1C
Resp: 1

----------
System: U2OS
Assay: Incucyte cell viability with U2OS; also: filed as whole numbers so only -1 and 0 and 1 occur
Format: toxicity, cell-based
Conditions: human, 12 h, 10 µM, compound concentration 10 uM, replicate number 1, timepoint 12 hours
# Growth Rate per entry
In your answer, state the number alone without any accompanying words.

Some molecules with recorded Growth Rate:
>>> observed_value("CC(C)Oc1ccc(C(=O)N[C@H](CNC(=O)CN(C)C)Cc2ccc(-c3cn4cccc([C@H](C)O)c4n3)cc2)cc1Cl [GSK-923295A]")
0
>>> observed_value("CN1C(=O)[C@@H](N2CCc3c(nn(Cc4ccccc4)c3Br)C2=O)COc2ccccc21 [TP-030-2]")
0

Req: # input molecule: N#Cc1ccccc1OCC(O)CNCCNC(=O)Nc1ccccc1 (configuration not stated) [ICI-89406] ; wanted: its Growth Rate
Resp: 0

Req: GET /values?readout=Growth Rate&item= CCCCN(CCCC)C(=O)CN1C[C@@H](c2ccc3c(c2)OCO3)[C@H](C(=O)O)[C@H]1c1ccc(OC)cc1
Resp: 0

----------
System: U2OS
Test: Incucyte cell viability with U2OS; also: filed as whole numbers so only -1 and 0 and 1 occur
Format: toxicity, cell-based
Settings: human, 6 h, 10 µM, compound concentration 10 uM, replicate number 2, timepoint 6 hours
Below is a list of entries, each paired with its recorded Growth Rate value.
The reply should be a number, written without any unit.

>>> observed_value("CCC(=O)N[C@H]1CC[C@@H](C(=O)N(C)c2ccc(-c3nc4ccccc4o3)cc2)C1")
1
>>> observed_value("CN(C)CC[C@@H](c1ccc(Cl)cc1)c1ccccn1.O=C(O)/C=C\\C(=O)O [DEXCHLORPHENIRAMINE MALEATE]")
0
>>> observed_value("FC(F)(F)c1c(N2CCC(c3ccccc3)CC2)ccn2c(CC3CC3)nnc12")
1

Req: Need Growth Rate of CCc1cc2c(cc1CC)CC(NC[C@H](O)c1ccc(O)c3[nH]c(=O)ccc13)C2 , thanks.
Resp: 1

Req: GET /values?readout=Growth Rate&item= CO[C@@H]1COCC[C@@H]1N[C@@H]1CC[C@@](C(=O)N2CCc3ncc(C(F)(F)F)cc3C2)(C(C)C)C1
Resp: 0

Req: Growth Rate for COc1cccc(OC)c1-c1cc(C(=O)NC2(C(=O)O)C3CC4CC(C3)CC2C4)nn1-c1ccnc2cc(Cl)ccc12 (stereo not drawn) ?
Resp: 1

Req: Reported Growth Rate for O=C(O)CC1CCC2(CC1)CCN(c1cc(OC(F)(F)F)ccc1Cl)CC2 : what is it?
Resp: 1

Req: Suppose we examine the molecule Nc1nc2c(c(N3CCNCC3)n1)CCC1=C2[C@@H]2CCCC[C@@H]2O1 ; what Growth Rate value has been reported?
Resp: 1
